- Tested on: Aspergillus fumigatus
- TEST SUMMARY: Antifungal activity against Aspergillus fumigatus ATCC 90906 after 48 hrs by spectrophotometry
- Assay type: functional
- MEASUREMENT CONTEXT: ATCC 90906, 48 h
OBSERVATION TYPE: MIC (µg/mL)
Give the number; µg/mL is assumed, so skip it.

GIVEN SMILES: C[C@@H]1[C@H](O)[C@@H](C)/C=C/C=C/C=C/C=C/C=C/C=C/C=C/[C@H](O[C@@H]2O[C@H](C)[C@@H](O)[C@H](N)[C@@H]2O)C[C@@H]2O[C@](O)(C[C@@H](O)C[C@@H](O)[C@H](O)CC[C@@H](O)C[C@@H](O)CC(=O)O[C@H]1C)C[C@H](O)[C@H]2C(=O)O
MIC, µg/mL: 2.5

Req: # query: MIC of entry CCCCCCCCCCCCCCCCOP(=O)([O-])OCC[N+](C)(C)Cc1ccc([N+](=O)[O-])cc1
Resp: 2.5

Req: Repeat for the following compound: CCCCCCCCCCCCCCCCOP(=O)([O-])OCC[N+](C)(C)Cc1ccc(Br)cc1
Resp: 20

###

- Test system: Aspergillus fumigatus
- TEST SUMMARY: Antifungal activity against Aspergillus fumigatus ATCC 90906 after 48 hrs
- Type: functional
- MEASUREMENT CONTEXT: ATCC 90906, 48 h
OBSERVATION TYPE: MFC (µg/mL)
Output spec: scalar in µg/mL, unitless text.

GIVEN SMILES: CCCCCCCCCCCCCCCCOP(=O)([O-])OCC[N+](C)(C)Cc1ccc(Cl)cc1
MFC [µg/mL]: 12.5

GIVEN SMILES: CCCCCCCCCCCCCCCCOP(=O)([O-])OCC[N+](C)(C)Cc1ccc(OC)cc1
MFC [µg/mL]: 7.5

GIVEN SMILES: CCCCCCCCCCCCCCCCOP(=O)([O-])OCC[N+](C)(C)C/C=C/c1ccccc1
MFC [µg/mL]: 5

GIVEN SMILES: CCCCCCCCCCCCCCCCOP(=O)([O-])OCC[N+](C)(C)Cc1ccc([N+](=O)[O-])cc1
MFC [µg/mL]: 7.5

Req: Consider the compound shown here: CCCCCCCCCCCCCCCCOP(=O)([O-])OCC[N+](C)(C)Cc1ccc(Br)cc1 What is its recorded MFC?
Resp: 20

Req: Now this one: C[C@@H]1[C@H](O)[C@@H](C)/C=C/C=C/C=C/C=C/C=C/C=C/C=C/[C@H](O[C@@H]2O[C@H](C)[C@@H](O)[C@H](N)[C@@H]2O)C[C@@H]2O[C@](O)(C[C@@H](O)C[C@@H](O)[C@H](O)CC[C@@H](O)C[C@@H](O)CC(=O)O[C@H]1C)C[C@H](O)[C@H]2C(=O)O
Resp: 5

Req: Cool, now CCCCCCCCCCCCCCCCOP(=O)([O-])OCC[N+](C)(C)Cc1ccccc1
Resp: 2.5

Req: Try this compound next: CCCCCCCCCCCCCCCCOP(=O)([O-])OCC[N+](C)(C)C
Resp: 9.2

###

- System: Aspergillus fumigatus
- TEST SUMMARY: Antifungal activity against Aspergillus fumigatus ATCC 90906 after 48 hrs by spectrophotometry
- Type: functional
- MEASUREMENT CONTEXT: ATCC 90906, 48 h
OBSERVATION TYPE: MIC (µg/mL)
Supply the numeric figure in µg/mL, leaving out any unit text.

Example cases with answers are listed next.
GIVEN SMILES: CCCCCCCCCCCCCCCCOP(=O)([O-])OCC[N+](C)(C)C
MIC, µg/mL: 2.9

GIVEN SMILES: CCCCCCCCCCCCCCCCOP(=O)([O-])OCC[N+](C)(C)C/C=C/c1ccccc1
MIC, µg/mL: 2.5

GIVEN SMILES: CCCCCCCCCCCCCCOP(=O)([O-])OCC[N+](C)(C)Cc1ccccc1
MIC, µg/mL: 10

GIVEN SMILES: CCCCCCCCCCCCCCCCOP(=O)([O-])OCC[N+](C)(C)Cc1ccc(Cl)cc1
MIC, µg/mL: 12.5

GIVEN SMILES: CCCCCCCCCCCCCCCCOP(=O)([O-])OCC[N+](C)(C)Cc1ccc(OC)cc1
MIC, µg/mL: 2.5

Consider the additional molecule presented here.
Req: Please give the measured MIC for this molecule: CCCCCCCCCCCCCCCCOP(=O)([O-])OCC[N+](C)(C)Cc1ccccc1
Resp: 2.5

Source listed as ChEMBL document CHEMBL2417423.
